Tested on: SNB-75 CNS
protocolText: NCI-60 one-dose screen, 48 h
testContext: 10 µM unless noted
The panel holds about 83,000 compounds, 20% with a hit somewhere; the sample as a whole holds those more often. Calls of active or inactive are those of the source. How the source made its calls: active means growth percent below 10; inactive means the rest.
Classes used: true (1) for active, false (0) for inactive

- O=C(Cc1ccccc1)c1ccc(O)c(Cl)c1: false (0)
- O=C(O)CCCl: false (0)
- COc1ccc(Nc2ccc3ccccc3c2)cc1: false (0)
- OCCN1CCCCCCC1: false (0)
- CC(C)NC(=O)N/C=C(\C#N)C(N)=O: false (0)
- CC1CCC(C(C)C)C(NNC(N)=O)C1 (configuration not stated): false (0)
- Nc1ncnc2c1ncn2C1OC(COP(=O)(O)O)C(O)C1O (configuration not stated): false (0)
- O=[N+]([O-])c1cccc(SSc2cccc([N+](=O)[O-])c2)c1: false (0)
- CCCCCCCCCCNC(=O)CI: true (1)
- CC1=C/C(O)CC(=O)Cc2nc(co2)C(=O)N2CCC=C2C(=O)OC(C(C)C)C(C)/C=C\C(=O)NC/C=C\1 (configuration not stated): false (0)
- NC(=O)NCCCC(N)C(=O)O (configuration not stated): false (0)
- CC(C)C(C)(C)c1ccc(O)cc1: false (0)
- COc1ccc2cc1Oc1ccc(cc1)C[C@H]1c3cc(c(OC)cc3CCN1C)Oc1c(OC)c(OC)cc3c1[C@H](C2)N(C)CC3: true (1)
- Cc1cc(-c2ccc(N=Nc3ccc4c(S(=O)(=O)O)cc(S(=O)(=O)O)c(N)c4c3O)c(C)c2)ccc1N=Nc1ccc2c(S(=O)(=O)O)cc(S(=O)(=O)O)c(N)c2c1O: false (0)
- Cc1cc(-c2cc(C)c(O)c(C)c2)cc(C)c1O: false (0)
- CC(=O)OC(C)C(=O)NCC(C)O (configuration not stated): false (0)
- O=CN1CCCCC1: false (0)
- c1ccc(-c2nc3ccccc3s2)cc1: false (0)
- COc1ccc(N/C=C/C2=[N+](C)c3ccccc3C2(C)C)c(OC)c1: false (0)
- O=C1c2c(O)ccc(O)c2C(=O)c2c(NCCNCCO)ccc(NCCNCCO)c21: true (1)
- Fc1ccc([I+]c2ccc(F)cc2)cc1: false (0)
- CCc1cc(C)cc(O)c1: false (0)
- Cl: false (0)
- O=C(/C=C/c1ccccc1)c1ccccc1: false (0)
- CC1(C)COC(=S)N1: false (0)
- CCCCOC(=O)/C=C\C(=O)NC(N)=O: false (0)
- OC1COC(OCc2ccccc2)C(O)C1O (configuration not stated): false (0)

###

System: TK-10 renal
protocolText: NCI-60 one-dose screen, 48 h (100 = growth as untreated, 0 = no growth, -100 = all killed)
testContext: 10 µM unless noted
About 83,000 compounds went through this panel and 20% of them were active in at least one assay; those are over-represented in the sample as a whole.
Listed below: growth values for each entry.
observationType: growth (%)

• CCCCCCCCCCCCCCCc1ccc(N)c(OC2OC(CO)C(O)C(O)C2O)c1 (centres undefined) = 113
• COc1ccc(C(=O)CC(c2ccccc2)C(C#N)c2ccccc2)cc1 (centres undefined) = 88
• c1ccc2c(c1)OC1OC2Oc2ccccc21 = 97.6
• CC(C)C(C)(C)c1ccc(O)cc1 = 107
